- assay_target: HIV-1 Env of pseudovirus SC422661.8 (HIV-1)
- experiment: cell-based or functional assay
Reported values of neutralization IC50 for individual entries
Express the result in µg/mL but write the number alone.

The following binders have reported results that may help.
{"columns": ["binder", "test_value"],
 "data": [
  ["MS-76 (antibody, V domains shown) VH: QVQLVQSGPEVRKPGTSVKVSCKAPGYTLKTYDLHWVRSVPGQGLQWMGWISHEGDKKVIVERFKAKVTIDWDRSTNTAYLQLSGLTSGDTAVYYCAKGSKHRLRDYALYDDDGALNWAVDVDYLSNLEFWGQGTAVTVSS VL: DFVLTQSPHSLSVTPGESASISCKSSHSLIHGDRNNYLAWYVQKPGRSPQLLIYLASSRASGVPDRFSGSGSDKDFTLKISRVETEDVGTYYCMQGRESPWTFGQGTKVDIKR", 0.36],
  ["MS-74 (antibody, V domains shown) VH: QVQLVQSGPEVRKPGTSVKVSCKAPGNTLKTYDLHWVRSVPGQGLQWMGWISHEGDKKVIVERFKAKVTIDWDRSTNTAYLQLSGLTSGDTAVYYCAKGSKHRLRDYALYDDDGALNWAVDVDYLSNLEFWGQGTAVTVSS VL: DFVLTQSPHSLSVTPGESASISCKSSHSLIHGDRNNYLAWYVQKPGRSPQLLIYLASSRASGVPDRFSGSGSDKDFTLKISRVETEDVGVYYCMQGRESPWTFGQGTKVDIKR", 0.388]
]}

Let us examine a further case.
Challenge: Specify reported neutralization IC50 for the binder shown: MS-78 (antibody, V domains shown) VH: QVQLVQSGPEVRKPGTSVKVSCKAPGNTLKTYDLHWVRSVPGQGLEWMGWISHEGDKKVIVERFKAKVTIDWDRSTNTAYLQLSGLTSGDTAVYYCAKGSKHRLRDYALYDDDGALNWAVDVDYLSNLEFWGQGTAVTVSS VL: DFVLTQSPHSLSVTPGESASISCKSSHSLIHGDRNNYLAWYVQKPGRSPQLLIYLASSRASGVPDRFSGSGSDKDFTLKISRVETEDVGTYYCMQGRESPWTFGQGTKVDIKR
Response given: 0.635
